test details: Cmax in […] plasma at 2.5 mg/kg, iv after 5 mins by LC-MS/MS analysis
Type: ADME, organism-based
Parameters: dose 2.5 mg/kg, route intravenous
Parameter Cmax: see the listing below.
Report the value in ng/mL with no unit label.

| structure notation | value observed |
| --- | --- |
| CCN(C(=O)CCN1CCN(C(=O)c2ccco2)CC1)c1ccc2c(C)cc(=O)oc2c1 | 2840 |

Would you kindly share the measured Cmax for `CC(C)CCn1c(CN2CCN(C(=O)c3ccco3)CC2)nc2c1c(=O)n(C)c(=O)n2C` ?
2530

====

Parameter inhibition: see the listing below.
assay target: Aldehyde dehydrogenase 1A1 (Homo sapiens) (UniProt P00352)
Sequence (whole entry): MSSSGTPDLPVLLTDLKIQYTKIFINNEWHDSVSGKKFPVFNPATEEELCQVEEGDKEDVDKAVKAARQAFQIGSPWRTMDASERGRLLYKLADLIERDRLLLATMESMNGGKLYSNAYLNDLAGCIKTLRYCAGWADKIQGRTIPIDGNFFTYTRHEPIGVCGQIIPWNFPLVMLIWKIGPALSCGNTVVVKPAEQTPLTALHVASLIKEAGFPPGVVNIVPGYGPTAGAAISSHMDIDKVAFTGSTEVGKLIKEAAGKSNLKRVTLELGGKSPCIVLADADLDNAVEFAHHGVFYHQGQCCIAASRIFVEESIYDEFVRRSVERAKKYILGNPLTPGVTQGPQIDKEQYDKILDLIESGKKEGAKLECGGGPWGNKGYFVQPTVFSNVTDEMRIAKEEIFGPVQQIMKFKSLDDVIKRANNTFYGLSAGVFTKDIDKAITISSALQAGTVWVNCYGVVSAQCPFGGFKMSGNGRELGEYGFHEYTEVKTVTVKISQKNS
test details: Inhibition of N-terminal Met/His6-tagged recombinant human ALDH1A1 (Ser2-Ser501 residues) expressed in Escherichia coli cells at 10 uM using propionaldehyde as substrate preincubated for 15 mins followed by substrate addition by spectrophotometric method relative to control
Report the value in % with no unit label.

Worked examples follow.
| structure notation | unit name | value observed |
| --- | --- | --- |
| Cc1cc(=O)oc2cc(N(CC3CCCCC3)C(=O)CCN3CCN(C(=O)c4ccco4)CC3)ccc12 | % | 26.2 |
| CC(C)=CCN(C(=O)CCN1CCN(C(=O)c2ccccc2F)CC1)c1ccc2c(C)cc(=O)oc2c1 | % | 51.8 |

Would you kindly share the measured inhibition for `CC(C)=CCN(C(=O)CCCN1CCN(C(=O)c2ccco2)CC1)c1ccc2c(C)cc(=O)oc2c1` ?
4.77
